Parameter IC50: see the listing below.
Molecular target: Porcine kidney D-amino acid oxidase (Sus scrofa)
Sequence (P00371 whole entry): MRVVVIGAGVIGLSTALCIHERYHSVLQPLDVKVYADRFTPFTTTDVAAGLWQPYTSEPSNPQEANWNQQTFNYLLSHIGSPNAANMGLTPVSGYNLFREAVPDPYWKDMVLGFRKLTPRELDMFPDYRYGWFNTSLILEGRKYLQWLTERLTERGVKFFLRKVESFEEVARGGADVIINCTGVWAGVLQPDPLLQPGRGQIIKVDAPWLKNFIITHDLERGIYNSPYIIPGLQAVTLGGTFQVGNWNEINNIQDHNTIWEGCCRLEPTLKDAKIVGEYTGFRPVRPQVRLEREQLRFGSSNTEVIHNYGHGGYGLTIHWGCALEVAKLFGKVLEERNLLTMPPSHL
// return numeric value only (unit: µM, not printed)

compound="O=C(O)c1ccc([N+](=O)[O-])c2c1NC(c1ccc([N+](=O)[O-])cc1)C1CC=CC21 (centres unmarked) [compound 11]" meas_value=29

Now consider a different compound.
Quick check: IC50 on Porcine kidney D-amino acid oxidase (Sus scrofa), item O=C(O)c1cc2ccccc2[nH]1 [compound 1] ? 2
